Field: MIC. Provide a value for each of the molecules that follow.
System: Enterococcus faecium ATCC 19434
assay.procedure: Broth microdilution MIC of SP-BIMs
Format: cell-based
test.conditions: ATCC19434, SP-BIM alone, read-out: MIC Enterococcus faecium ATCC 19434

# lookup: MIC of COc1ccc2c(C(c3cccc(O)c3)c3c[nH]c4cc(OC)ccc34)c[nH]c2c1 [SP-BIM 19]
> 250 µg/mL

# lookup: MIC of COc1ccc2c(C(c3ccc([N+](=O)[O-])cc3)c3c[nH]c4cc(OC)ccc34)c[nH]c2c1 [SP-BIM 20]
> 250 µg/mL

# lookup: MIC of O=[N+]([O-])c1ccc(C(c2c[nH]c3ccccc23)c2c[nH]c3ccccc23)cc1 [SP-BIM 8]
> 250 µg/mL

# lookup: MIC of Oc1cc(Br)ccc1C(c1c[nH]c2ccccc12)c1c[nH]c2ccccc12 [SP-BIM 15]
125 µg/mL

# lookup: MIC of c1ccc(C(c2c[nH]c3ccccc23)c2c[nH]c3ccccc23)cc1 [SP-BIM 1, bis(indol-3-yl)-phenylmethane]
52 µg/mL

# lookup: MIC of Oc1cc(C(c2c[nH]c3ccccc23)c2c[nH]c3ccccc23)cc(O)c1O [SP-BIM 13]
125 µg/mL

# lookup: MIC of O=Cc1cccc(C(c2c[nH]c3ccccc23)c2c[nH]c3ccccc23)c1 [SP-BIM 6, 3-(di(1H-indol-3-yl)methyl)benzaldehyde]
> 250 µg/mL

# lookup: MIC of CN(C)c1ccc(C(c2c[nH]c3ccccc23)c2c[nH]c3ccccc23)cc1 [SP-BIM 2]
> 250 µg/mL

----------
Test system: clinical strains of MRSA
assay.procedure: Kirby Bauer disc diffusion susceptibility profile
Format: cell-based, Staphylococcus aureus
test.conditions: MRSA strain 1594; 35° C., 24 hours, average n=3
value.type: Zone of clearance (mm)
Please give a number only; it is taken to be in mm.

# lookup: Zone of clearance of C[C@H]1c2cccc(O)c2C(=O)C2=C(O)[C@]3(O)C(=O)C(C(N)=O)=C(O)[C@@H](N(C)C)[C@@H]3[C@@H](O)[C@@H]21
12.5

# lookup: Zone of clearance of CC1(C)S[C@@H]2[C@H](NC(=O)[C@H](N)c3ccccc3)C(=O)N2[C@H]1C(=O)O
13.0

# lookup: Zone of clearance of NC[C@H]1O[C@H](O[C@H]2[C@H](O)[C@@H](O[C@H]3O[C@H](CO)[C@@H](O)[C@H](N)[C@H]3O)[C@H](N)C[C@@H]2N)[C@H](O)[C@@H](O)[C@@H]1O
11.5

# lookup: Zone of clearance of [H]/N=C(/N)N[C@H]1[C@H](O)[C@@H](O)[C@H](O[C@@H]2O[C@@H](C)[C@](O)(C=O)[C@H]2O[C@@H]2O[C@@H](CO)[C@H](O)[C@@H](O)[C@@H]2NC)[C@@H](N/C(N)=N\[H])[C@@H]1O
11.5

# lookup: Zone of clearance of CC[C@H]1OC(=O)[C@H](C)[C@@H](O[C@H]2C[C@@](C)(OC)[C@@H](O)[C@H](C)O2)[C@H](C)[C@@H](O[C@@H]2O[C@H](C)C[C@H](N(C)C)[C@H]2O)[C@](C)(O)C[C@@H](C)C(=O)[C@H](C)[C@@H](O)[C@]1(C)O
19.0

# lookup: Zone of clearance of O=C(N[C@H](CO)[C@H](O)c1ccc([N+](=O)[O-])cc1)C(Cl)Cl
18.5

----------
Field: MIC. Provide a value for each of the compounds that follow.
System: Streptococcus pneumoniae
assay.procedure: Adjuvant broth microdilution (antibiotic MIC with SP-BIM at 50 μg/mL)
Assay type: cell-based
test.conditions: Streptococcus pneumoniae; Streptococcus pneumonia; SP-BIM at 50 μg mL^−1; read-out: MIC of Vancomvcin with SP-BIM
Please give a number only; it is taken to be in µg/mL.

# lookup: MIC of Oc1cccc(C(c2c[nH]c3ccccc23)c2c[nH]c3ccccc23)c1
0.2

# lookup: MIC of COc1ccc(C(c2c[nH]c3ccccc23)c2c[nH]c3ccccc23)cc1
1

# lookup: MIC of CC(C)(C)c1cc(C(c2c[nH]c3ccccc23)c2c[nH]c3ccccc23)c(O)c(C(C)(C)C)c1
1

# lookup: MIC of COc1ccc2c(C(c3cccc(O)c3)c3c[nH]c4cc(OC)ccc34)c[nH]c2c1
1

# lookup: MIC of O=[N+]([O-])c1cccc(C(c2c[nH]c3ccccc23)c2c[nH]c3ccccc23)c1 [SP-BIM 5, [bis(indol-3-yl)-3-nitrophenyl]methane]
1

# lookup: MIC of c1ccc2c(C(c3ncc[nH]3)c3c[nH]c4ccccc34)c[nH]c2c1 [SP-BIM 4, [bis(indol-3-yl)imidazol-2-yl]methane]
1

# lookup: MIC of CN(C)c1ccc(C(c2c[nH]c3ccccc23)c2c[nH]c3ccccc23)cc1
1

# lookup: MIC of O=[N+]([O-])c1ccc(C(c2c[nH]c3ccccc23)c2c[nH]c3ccccc23)cc1
1

# lookup: MIC of COc1ccc2c(C(c3ccc([N+](=O)[O-])cc3)c3c[nH]c4cc(OC)ccc34)c[nH]c2c1
1

# lookup: MIC of Oc1cc(Br)ccc1C(c1c[nH]c2ccccc12)c1c[nH]c2ccccc12
0.2

# lookup: MIC of c1ccc(C(c2c[nH]c3ccccc23)c2c[nH]c3ccccc23)cc1
1

# lookup: MIC of Oc1ccccc1C(c1c[nH]c2ccccc12)c1c[nH]c2ccccc12 [SP-BIM 11, bis(indol-3-yl)-2-hydroxyphenylmethane]
1

----------
System: Klebsiella pneumoniae
assay.procedure: Checkerboard synergy (FICI) of antibiotics with SP-BIM
Format: cell-based
test.conditions: in combination with SP-BIM 9
Response field label: string, one of Condition met (FIC of antibiotic strictly below 0.2) or Condition not met.

For CC[C@H]1OC(=O)[C@H](C)[C@@H](O[C@H]2C[C@@](C)(OC)[C@@H](O)[C@H](C)O2)[C@H](C)[C@@H](O[C@@H]2O[C@H](C)C[C@H](N(C)C)[C@H]2O)[C@](C)(O)C[C@@H](C)C(=O)[C@H](C)[C@@H](O)[C@]1(C)O , is the recorded FIC of antibiotic below the cut-off of 0.2?
Condition not met

For CC1=C(C(=O)O)N2C(=O)[C@@H](NC(=O)[C@H](N)c3ccccc3)[C@H]2SC1 , is the recorded FIC of antibiotic below the cut-off of 0.2?
Condition met

For O=C(O)c1cn(C2CC2)c2cc(N3CCNCC3)c(F)cc2c1=O , is the recorded FIC of antibiotic below the cut-off of 0.2?
Condition not met

For C[C@H]1[C@H](NC(=O)/C(=N\OC(C)(C)C(=O)O)c2csc(N)n2)C(=O)N1S(=O)(=O)O , is the recorded FIC of antibiotic below the cut-off of 0.2?
Condition met

For COc1cc(Cc2cnc(N)nc2N)cc(OC)c1OC , is the recorded FIC of antibiotic below the cut-off of 0.2?
Condition not met

For C[C@H]1c2cccc(O)c2C(=O)C2=C(O)[C@]3(O)C(=O)C(C(N)=O)=C(O)[C@@H](N(C)C)[C@@H]3[C@@H](O)[C@@H]21 , is the recorded FIC of antibiotic below the cut-off of 0.2?
Condition not met

For [H]/N=C(/N)N[C@H]1[C@H](O)[C@@H](O)[C@H](O[C@@H]2O[C@@H](C)[C@](O)(C=O)[C@H]2O[C@@H]2O[C@@H](CO)[C@H](O)[C@@H](O)[C@@H]2NC)[C@@H](N/C(N)=N\[H])[C@@H]1O , is the recorded FIC of antibiotic below the cut-off of 0.2?
Condition met

For CC1(C)S[C@@H]2[C@H](NC(=O)[C@H](N)c3ccccc3)C(=O)N2[C@H]1C(=O)O , is the recorded FIC of antibiotic below the cut-off of 0.2?
Condition met

----------
Test system: clinical strains of MRSA
assay.procedure: Kirby Bauer disc diffusion susceptibility profile
Format: cell-based, Staphylococcus aureus
test.conditions: MRSA strain 5872; 35° C., 24 hours, average n=3
value.type: Zone of clearance (mm)
Please give a number only; it is taken to be in mm.

# lookup: Zone of clearance of [H]/N=C(/N)N[C@H]1[C@H](O)[C@@H](O)[C@H](O[C@@H]2O[C@@H](C)[C@](O)(C=O)[C@H]2O[C@@H]2O[C@@H](CO)[C@H](O)[C@@H](O)[C@@H]2NC)[C@@H](N/C(N)=N\[H])[C@@H]1O
8.0

# lookup: Zone of clearance of O=C(N[C@H](CO)[C@H](O)c1ccc([N+](=O)[O-])cc1)C(Cl)Cl
20.5

# lookup: Zone of clearance of CC1(C)S[C@@H]2[C@H](NC(=O)[C@H](N)c3ccccc3)C(=O)N2[C@H]1C(=O)O
9.0

# lookup: Zone of clearance of NC[C@H]1O[C@H](O[C@H]2[C@H](O)[C@@H](O[C@H]3O[C@H](CO)[C@@H](O)[C@H](N)[C@H]3O)[C@H](N)C[C@@H]2N)[C@H](O)[C@@H](O)[C@@H]1O
0.0

# lookup: Zone of clearance of C[C@H]1c2cccc(O)c2C(=O)C2=C(O)[C@]3(O)C(=O)C(C(N)=O)=C(O)[C@@H](N(C)C)[C@@H]3[C@@H](O)[C@@H]21
15.0

# lookup: Zone of clearance of CC[C@H]1OC(=O)[C@H](C)[C@@H](O[C@H]2C[C@@](C)(OC)[C@@H](O)[C@H](C)O2)[C@H](C)[C@@H](O[C@@H]2O[C@H](C)C[C@H](N(C)C)[C@H]2O)[C@](C)(O)C[C@@H](C)C(=O)[C@H](C)[C@@H](O)[C@]1(C)O
0.0

Values compiled from patent US12285407B2.
